Please consider the recorded pIC50 for Interferon regulatory factor 4 (Homo sapiens) in what follows.
A value of pIC50 is the negative decimal logarithm of a concentration given in moles per litre.

Past entries and their recorded results:
test smiles: C[C@H](C(=O)Nc1ccc2ncsc2c1)[C@H]1CC[C@H]2[C@@H]3C(=O)C=C4C(C)(C)C(=O)C(C#N)=C[C@]4(C)[C@H]3CC[C@]12C
pIC50: 4.92
--
test smiles: C[C@H](C(=O)n1ccnc1)[C@H]1CC[C@H]2[C@@H]3C(=O)C=C4C(C)(C)C(=O)C(C#N)=C[C@]4(C)[C@H]3CC[C@]12C
pIC50: 5.41
--
test smiles: C[C@H](C(=O)n1cccn1)[C@H]1CC[C@H]2[C@@H]3C(=O)C=C4C(C)(C)C(=O)C(C#N)=C[C@]4(C)[C@H]3CC[C@]12C
pIC50: 5.42

Quick one: pIC50 for C[C@H](C(=O)NC1CCCCC1)[C@H]1CC[C@H]2[C@@H]3C(=O)C=C4C(C)(C)C(=O)C(C#N)=C[C@]4(C)[C@H]3CC[C@]12C ?
4.79

Then what about the compound C[C@H](C(=O)Nc1ccc2cc[nH]c2c1)[C@H]1CC[C@H]2[C@@H]3C(=O)C=C4C(C)(C)C(=O)C(C#N)=C[C@]4(C)[C@H]3CC[C@]12C ?
4.93

Then what about the compound CCc1ccc(NC(=O)[C@@H](C)[C@H]2CC[C@H]3[C@@H]4C(=O)C=C5C(C)(C)C(=O)C(C#N)=C[C@]5(C)[C@H]4CC[C@]23C)cc1 ?
4.89

Then what about the compound COc1ccc(NC(=O)CC[C@@H](C)[C@H]2CC[C@H]3[C@@H]4C(=O)C=C5C(C)(C)C(=O)C(C#N)=C[C@]5(C)[C@H]4CC[C@]23C)cc1 ?
4.75

Then what about the compound CCCCOc1ccc(NC(=O)[C@@H](C)[C@H]2CC[C@H]3[C@@H]4C(=O)C=C5C(C)(C)C(=O)C(C#N)=C[C@]5(C)[C@H]4CC[C@]23C)cc1 ?
4.78

----------
- protocol summary: Tmax in ICR mouse plasma at 1.0 mg/kg, iv
- Type: ADME, organism-based
property measured: Tmax (min)
Quick note: give the figure in min, leave out the unit.

Quick one: Tmax for COc1ccc(NC(=O)[C@@H](C)[C@H]2CC[C@H]3[C@@H]4C(=O)C=C5C(C)(C)C(=O)C(C#N)=C[C@]5(C)[C@H]4CC[C@]23C)cc1 ?
4.8

----------
- protocol summary: Antiproliferative activity against human MM1.R cells assessed as inhibition of cell viability measured after 72 hrs by MTS assay
- Assay type: functional, cell-based
- test context: MM.1R
Listed here are molecules together with their documented IC50.
Quick note: give the figure in µM, leave out the unit.

Past entries and their recorded results:
test smiles: COc1ccc(NC(=O)[C@@H](C)[C@H]2CC[C@H]3[C@@H]4C(=O)C=C5C(C)(C)C(=O)C(C#N)=C[C@]5(C)[C@H]4CC[C@]23C)cc1
result units: µM
IC50: 0.11

test smiles: C[C@H](C(=O)Nc1ccccc1)[C@H]1CC[C@H]2[C@@H]3C(=O)C=C4C(C)(C)C(=O)C(C#N)=C[C@]4(C)[C@H]3CC[C@]12C
result units: µM
IC50: 0.11

test smiles: C[C@H](C(=O)n1ccnc1)[C@H]1CC[C@H]2[C@@H]3C(=O)C=C4C(C)(C)C(=O)C(C#N)=C[C@]4(C)[C@H]3CC[C@]12C
result units: µM
IC50: 4.46

Here's the next entry for you.
Quick one: IC50 for C[C@H](C(=O)n1cccn1)[C@H]1CC[C@H]2[C@@H]3C(=O)C=C4C(C)(C)C(=O)C(C#N)=C[C@]4(C)[C@H]3CC[C@]12C ?
0.24
